# credit: PubChem BioAssay AID727

target: Focal adhesion kinase 1 (Homo sapiens); assay: FAK kinase inhibitors, primary screen, biochemical (AID 727); settings: biochemical FAK kinase activity assay; active compounds read high;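 tested at 7 µM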;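 also: 0% = DMSO and 100% = reference compound high control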
Hit rate of the full screen: of about 97,000 compounds, about 810 (0.84%) were called active. For the sample, actives were picked, then their nearest neighbours and some compounds at random.
Reported Endpoint: inhibition (%)
Give a bare numeral; the unit % is implied.

For orientation, consider the following solved cases.
Molecule: c1ccc(CSc2nnc(-c3ccco3)n2Cc2ccccc2)cc1
Reported Value: -5.27

Molecule: Cc1cc(NC(=O)Nc2ccccc2)n(-c2ccccc2)n1
Reported Value: -1.43

Molecule: Nc1nc(SCc2ccccc2Cl)n[nH]1
Reported Value: 1.47

Molecule: O=C1C2N=NN(CC(=O)N3N=C(c4cccc5ccccc45)CC3c3ccccc3)C2C(=O)N1c1ccccc1 (stereo not given)
Reported Value: 1.07

Molecule: O=C(Nc1ccc(Cl)cn1)c1cnn2cccnc12
Reported Value: 5.62

Prompt: Give inhibition for CC(C)(C)C(=O)Cn1c(NCCO)nc2ccccc21
Response: 1.69

Prompt: Please report the measured inhibition for CC(=NCc1ccco1)C1=C(O)c2ccccc2C1=O
Response: 27.9

Prompt: Identify inhibition associated with the molecule Cc1[nH]n(-c2ccc([N+](=O)[O-])cc2)c(=O)c1C=NCCN1CCN(C(=O)c2ccccc2F)CC1
Response: 6.47

Prompt: Determine from records and report inhibition for Cc1nn(C)c(Oc2ccccc2)c1CCNS(=O)(=O)c1ccc(F)cc1
Response: 0.76

Prompt: // Input: O=C(CSc1nnnn1-c1ccccc1)NCc1ccco1 . Output its inhibition only.
Response: 5.37

Prompt: Please give the documented inhibition of O=C(Cc1ncc(C(F)(F)F)cc1Cl)Nc1cccc(Br)c1
Response: -7.54

Prompt: Retrieve inhibition measured for CCc1ccccc1NC(=O)CSc1nnc([C@@H](NC(=O)OC(C)(C)C)C(C)C)o1 and print it.
Response: -2.32

Prompt: Give inhibition for the following molecule: COC(=O)CN(C(=S)Nc1ccc(Cl)cc1)C1CC(=O)N(c2ccc(OC)cc2)C1=O (stereo not given)
Response: 1.24

Prompt: Provide one value: measured inhibition of O=C(NC1CCN(C(=S)NCc2ccco2)CC1)c1ccc(F)cc1
Response: 2.16

Prompt: Name the recorded inhibition of the molecule listed here: CC(=NCc1ccco1)c1c(C(F)(F)F)[nH]n(-c2nc3ccccc3s2)c1=O
Response: 5.23

Prompt: Report inhibition for CC(=NCc1ccc2c(c1)OCO2)C1=C(O)c2ccccc2C1=O
Response: 6.12

Prompt: Report inhibition, nothing else, for this molecule: CC(C)(C)C(=O)c1cnc(Nc2ccccc2)s1
Response: 4.36

Prompt: Provide inhibition value for the following molecule: O=c1c2c(nc3nc[nH]n13)CCC2
Response: -0.92

Prompt: Specify inhibition for COc1ccc(C2C(C#N)=C(/N=C/N3CCOCC3)OC3=C2C(=O)CC(C)(C)C3)cc1OC (stereo not given) and stop.
Response: 0.22

* * *

target: Focal adhesion kinase 1 (Homo sapiens); test: FAK kinase inhibitors, primary screen, biochemical (AID 727); settings: biochemical FAK kinase activity assay;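 tested at 7 µM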;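 also: 0% = DMSO and 100% = reference compound high control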
In all, about 97,000 compounds went through this assay and about 810 (0.84%) were called active. Cut-off read from the data, not from the text of the source: active = inhibition above about 19%; inactive = the rest. The full list was thinned out, with actives kept by preference.
Log the outcome using a class from YES (active), NO (inactive)

These recorded examples may help you get a feel for the data.
Compound: Cn1c(CCN2CCCCCC2)nc2cc(NC(=O)Nc3ccccc3)ccc21
Class Label: YES
//
Compound: CCOC(=O)c1sc2nc(SC)nc(-c3ccccc3)c2c1N
Class Label: NO

Prompt: Which outcome did this test record for the compound CCc1ccc2nc3sc(C(=O)Nc4nnc(CC)s4)c(N)c3cc2c1 ?
Response: YES

Prompt: Which result was noted for this compound in the test: CCc1nnc(NC(=O)c2nc3nccc(C)n3n2)s1
Response: NO

Prompt: # fetch the recorded call for CC1(C)C2CCC13CS(=O)(=O)NC3C2 (configuration not stated) here
Response: NO

Prompt: # lookup: test call for CCn1c(SC)nc(O)c(C(c2ccc(OC)c(O)c2)c2c(O)nc(SC)n(CC)c2=O)c1=O
Response: NO

Prompt: Please state the recorded outcome for this compound: O=c1c2ccccc2c(-c2ccc(F)cc2)nn1-c1ccc(C(F)(F)F)cc1
Response: NO

Prompt: Please indicate how the test categorized Cc1ccccc1-n1c(C)cc(/C=N/NC(=O)c2ccc(CN3CCOCC3)cc2)c1C .
Response: NO

* * *

molecular target: Focal adhesion kinase 1 (Homo sapiens) (UniProt Q05397); test: FAK kinase inhibitors, primary screen, biochemical (AID 727); settings: biochemical FAK kinase activity assay; active compounds read high;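 tested at 7 µM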;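 also: 0% = DMSO and 100% = reference compound high control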
Sequence (Q05397 whole entry, looked up): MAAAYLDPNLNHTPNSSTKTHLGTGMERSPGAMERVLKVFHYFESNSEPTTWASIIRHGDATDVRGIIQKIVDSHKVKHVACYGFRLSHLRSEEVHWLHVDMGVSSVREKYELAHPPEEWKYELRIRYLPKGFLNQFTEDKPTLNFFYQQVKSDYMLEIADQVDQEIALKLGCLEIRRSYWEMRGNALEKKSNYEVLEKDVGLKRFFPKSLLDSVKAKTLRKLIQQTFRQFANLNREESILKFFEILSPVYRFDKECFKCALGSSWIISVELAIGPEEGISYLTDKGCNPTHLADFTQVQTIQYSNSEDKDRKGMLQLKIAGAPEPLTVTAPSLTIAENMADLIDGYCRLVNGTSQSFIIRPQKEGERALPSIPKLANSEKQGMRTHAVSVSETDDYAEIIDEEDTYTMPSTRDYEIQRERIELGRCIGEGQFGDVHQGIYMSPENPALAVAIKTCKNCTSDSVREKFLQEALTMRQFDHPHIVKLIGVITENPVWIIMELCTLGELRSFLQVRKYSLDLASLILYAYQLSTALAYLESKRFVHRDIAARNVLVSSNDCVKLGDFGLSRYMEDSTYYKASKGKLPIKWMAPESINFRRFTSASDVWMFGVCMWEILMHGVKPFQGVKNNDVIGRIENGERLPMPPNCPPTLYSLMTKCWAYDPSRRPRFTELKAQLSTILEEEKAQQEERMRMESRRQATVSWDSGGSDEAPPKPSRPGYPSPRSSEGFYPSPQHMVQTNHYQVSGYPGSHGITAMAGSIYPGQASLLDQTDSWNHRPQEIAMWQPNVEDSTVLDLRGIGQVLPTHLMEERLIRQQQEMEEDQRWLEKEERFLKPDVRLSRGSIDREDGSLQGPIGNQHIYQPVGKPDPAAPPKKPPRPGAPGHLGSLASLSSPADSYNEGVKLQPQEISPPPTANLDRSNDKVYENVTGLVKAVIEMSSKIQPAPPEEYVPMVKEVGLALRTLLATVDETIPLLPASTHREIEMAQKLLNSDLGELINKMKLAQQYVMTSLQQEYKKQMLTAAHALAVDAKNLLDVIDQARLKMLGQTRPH
Out of some 97,000 compounds screened, about 810 (0.84%) were called active. For the sample, actives were picked, then their nearest neighbours and some compounds at random.
Parameter: inhibition. Scope: all listed entries.
Write the value in % as a bare number.

Answered cases to consult:
Molecule: CCOC(=O)c1c(NC(=O)CSc2nnc(C)c(=O)[nH]2)sc2c1CCC2
Reported Value: -5.37

Molecule: Cc1ccc(C(c2nnnn2CS(=O)(=O)c2ccc(C)cc2)N2CCC(C)CC2)cc1 (stereo unspecified)
Reported Value: -7.49

Molecule: COc1cc(C(=O)Nc2nccs2)cc(OC)c1OC
Reported Value: -2.65

Molecule: COC(=O)c1c(NC(=O)c2cccs2)sc2c1CCCC2
Reported Value: -3.96

Molecule: COC(=O)c1c(NC(=O)CSc2nncs2)sc2c1CCCCC2
Reported Value: 19.5

Prompt: Specify inhibition for CCC(C)(C(=O)NC1CCCCC1)N(C)C(=O)c1ccc2c(c1)OCO2 (stereo unspecified) and stop.
Response: -1.51

* * *

molecular target: Focal adhesion kinase 1 (Homo sapiens) (UniProt Q05397); test: FAK kinase inhibitors, primary screen, biochemical (AID 727); conditions: biochemical FAK kinase activity assay;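 tested at 7 µM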;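 also: 0% = DMSO and 100% = reference compound high control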
Screen size: about 97,000 compounds; about 810 (0.84%) were called active. Rule as the data show it: active = inhibition above about 19%; inactive = the rest. The list comes from a sample in which actives are over-represented; it also holds close analogues and randomly drawn compounds.
API: response.call in Yes (active), No (inactive)

Here are 5 compounds together with their reported answers.
Compound: Cc1cc(=O)oc(C)c1C(=O)N1CCCCC1
Class Label: No

Compound: Cc1nn(Cc2ccc(C(=O)N3N=C(C(F)F)CC3(O)C(F)F)cc2)c(C)c1[N+](=O)[O-] (stereo unspecified)
Class Label: No

Compound: COC(=O)c1[nH]c2ccccc2c1NS(=O)(=O)c1ccc(OC)cc1OC
Class Label: No

Compound: Cc1c(NC(=O)CCCOc2ccccc2)cccc1[N+](=O)[O-]
Class Label: No

Compound: CCCNC(=O)Nc1ccccc1C(=O)Nc1ccc(OC)cc1
Class Label: No

Prompt: Which outcome was assigned to COc1ccc(OC)c(N=Cc2c(O)[nH]c3ccccc23)c1 in this test?
Response: No

Prompt: I would be grateful if you could indicate the recorded call for N#CC1=C(N)N(c2ccccc2)C2=C(C(=O)CCC2)C1c1ccccc1 (stereo unspecified) .
Response: No

Prompt: So what was the verdict on COc1ccc(NC(=O)ON=C2c3ccccc3-c3ccccc32)cc1 in this test?
Response: Yes

Prompt: Status in this test for COC(=O)c1ccccc1NC(=O)CSc1nnnn1C ?
Response: No

Prompt: Hi team, can someone confirm the assay call for O=c1c2ccccc2nc2n1C(CSCc1ccccc1)CS2 (stereo unspecified) ?
Response: No

Prompt: Which outcome was assigned to Cn1c(SCC(=O)C(C)(C)C)nnc1-c1ccccn1 in this test?
Response: No

* * *

target: Focal adhesion kinase 1 (Homo sapiens) (UniProt Q05397); test: FAK kinase inhibitors, primary screen, biochemical (AID 727); conditions: biochemical FAK kinase activity assay; active compounds read high;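 tested at 7 µM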;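 also: 0% = DMSO and 100% = reference compound high control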
Out of some 97,000 compounds screened, about 810 (0.84%) were called active. Shown is part of a subset that was picked to be rich in actives.
Items are presented alongside their recorded inhibition.
Answer in %, number only, no unit symbol.

Reference set (8 entries):
Compound: Cc1ccc(CNC(=O)COc2ccc(S(=O)(=O)NC(C)C)cc2)cc1
Reported Endpoint: inhibition
Reported Value: -1.67

Compound: Nn1c(Cc2cccc3ccccc23)nnc1SCC(=O)N1CC(=O)Nc2ccccc21
Reported Endpoint: inhibition
Reported Value: -1.43

Compound: COc1ccc(/C(N)=N/OC(=O)Oc2ccccc2)cc1
Reported Endpoint: inhibition
Reported Value: 0.12

Compound: Nc1ccccc1SCc1cc([N+](=O)[O-])cc2c1OCOC2
Reported Endpoint: inhibition
Reported Value: 0.81

Compound: Cc1ccc(C(=O)OC2=CC(=O)CC(C)(C)C2)cc1
Reported Endpoint: inhibition
Reported Value: 1.07

Compound: O=C(Nc1ccc(-n2ccnc2P(=O)(O)c2ccccc2)cc1)c1ccccc1Br
Reported Endpoint: inhibition
Reported Value: 22.8

Compound: N#C/C(=C\c1ccccc1)c1n[nH]c(Cn2cncn2)n1
Reported Endpoint: inhibition
Reported Value: -0.5

Compound: COc1ccc(-c2oc3ncn(Cc4ccco4)c(=N)c3c2-c2ccc(OC)cc2)cc1
Reported Endpoint: inhibition
Reported Value: 3.43

Prompt: # return recorded inhibition for input COc1ncnc2sc3c(c12)CCCC3
Response: 3.78

Prompt: Could you please provide reported inhibition for Oc1ccc(-c2onc3ccc(Cl)cc23)cc1 ? Thanks!
Response: 5.87

Prompt: Give recorded inhibition. Cc1ccc(S(=O)(=O)/N=C(/Nc2ccccn2)c2ccc(Cl)cc2)cc1
Response: -9

Prompt: For the compound O=C(/C=C/c1ccco1)Nc1cccc(-c2nc3ccccc3[nH]2)c1 , give its reported inhibition.
Response: 1.17

Prompt: # return recorded inhibition for input O=C(c1ccc2c(c1)C(=O)N(c1ccc(Cl)cc1)C2=O)N1CCN(c2ccccn2)CC1
Response: 22.9

Prompt: Please report the measured inhibition for O=C(CSc1nc2cccnc2n1Cc1ccccc1)N1CCc2ccccc21
Response: 1.41

Prompt: Input O=C(Nc1ccc(F)c(Cl)c1)C1CCN(S(=O)(=O)c2cccnc2)CC1 , output reported inhibition.
Response: 5.16
